Data provenance is patent US20260042764A1.

target: Avi-KRAS G12V (2-169) GTP/RAF1 RBD-3xFLAG (51-131) (Homo sapiens, UniProt P01116, G12V); construct: Avi-KRAS G12V (2-169); experiment: Raf1-KRAS G12V-GTP disruption HTRF assay (Biological Example 3); assay type: binding; conditions: KRAS G12V, GTP-loaded
Sequence (P01116 2-169 isoform P01116-2 G12V): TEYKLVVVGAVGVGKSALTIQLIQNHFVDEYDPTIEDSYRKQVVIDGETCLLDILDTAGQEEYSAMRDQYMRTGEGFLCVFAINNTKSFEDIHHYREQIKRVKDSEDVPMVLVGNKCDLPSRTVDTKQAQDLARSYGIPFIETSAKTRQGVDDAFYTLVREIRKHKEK
Overview of reported IC50 across a group of compounds:

compound	IC50
CCN(c1nc(OC[C@@]23CCCN2C[C@H](F)C3)nc2c(F)c(-c3ccc(F)c4sc(N)c(C#N)c34)c(C(F)(F)F)cc12)[C@H]1CCN(C(=O)N(C)C)[C@@H]1C (atropisomer, axis not shown)	≤ 0.1 µM
CCN(c1nc(OCC23CCCN2CC(F)C3)nc2c(F)c(-c3ccc(F)c4sc(N)c(C#N)c34)c(C(F)(F)F)cc12)C1CCN(C(=O)c2ncns2)C1 (stereo not drawn)	0.1 to 1 µM
CCN(c1nc(OC[C@@]23CCCN2C[C@H](F)C3)nc2c(F)c(-c3ccc(F)c4sc(N)c(C#N)c34)c(C(F)(F)F)cc12)[C@H]1CCN(C(=O)c2cncs2)C1 (atropisomer, axis not shown; (aS))	0.1 to 1 µM
CCN(c1nc(OC[C@@]23CCCN2C[C@H](F)C3)nc2c(F)c(-c3ccc(F)c4sc(N)c(C#N)c34)c(C(F)(F)F)cc12)[C@H]1C[C@H](COC)N(C(=O)[C@H]2C[C@H]2F)C1 (atropisomer, axis not shown)	0.1 to 1 µM
CCN(c1nc(OC[C@@]23CCCN2C[C@H](F)C3)nc2c(F)c(-c3ccc(F)c4sc(N)c(C#N)c34)c(C(F)(F)F)cc12)[C@H]1C[C@H](C)N(C(=O)COC)C1 (atropisomer, axis not shown)	≤ 0.1 µM

Lookup: # get_value(readout='IC50', item= CCN(c1nc(OC[C@@]23CCCN2C[C@H](F)C3)nc2c(F)c(-c3ccc(F)c4sc(N)c(C#N)c34)c(C(F)(F)F)cc12)[C@H]1CC[C@@H](C(=O)N(C)C)C1 (atropisomer, axis not shown) )
Found: 1 to 10 µM

Lookup: # get_value(readout='IC50', item= CCN(c1nc(OC[C@@]23CCCN2C[C@H](F)C3)nc2c(F)c(-c3ccc(F)c4sc(N)c(C#N)c34)c(C(F)(F)F)cc12)[C@H]1CCN(C(=O)c2ccon2)[C@@H]1C )
Found: 0.1 to 1 µM

Lookup: # get_value(readout='IC50', item= CCN(c1nc(OC[C@@]23CCCN2C[C@H](F)C3)nc2c(F)c(-c3ccc(F)c4sc(N)c(C#N)c34)c(C(F)(F)F)cc12)[C@H]1CCN(C(=O)C2COC2)[C@@H]1C (atropisomer, axis not shown) )
Found: 0.1 to 1 µM

Lookup: # get_value(readout='IC50', item= CCC(=O)N1C[C@H](N(CC)c2nc(OC[C@@]34CCCN3C[C@H](F)C4)nc3c(F)c(-c4ccc(F)c5sc(N)c(C#N)c45)c(C(F)(F)F)cc23)C[C@@H]1C (atropisomer, axis not shown) )
Found: 0.1 to 1 µM

Lookup: # get_value(readout='IC50', item= CCN(c1nc(OC[C@@]23CCCN2C[C@H](F)C3)nc2c(F)c(-c3ccc(F)c4sc(N)c(C#N)c34)c(C(F)(F)F)cc12)[C@H]1CCN(C(=O)c2nccs2)C1 (atropisomer, axis not shown) )
Found: 0.1 to 1 µM

====

target: Avi-KRAS G12D (2-169) GTP/RAF1 RBD-3xFLAG (51-131) (Homo sapiens, UniProt P01116, G12D); construct: Avi-KRAS G12D (2-169); experiment: Raf1-KRAS G12D-GTP disruption HTRF assay (Biological Example 3); format: binding; settings: KRAS G12D, GTP-loaded
Overview of reported IC50 across a group of compounds:

Before answering, review these 5 worked examples.
compound	IC50
CCN(c1nc(OC[C@@]23CCCN2C[C@H](F)C3)nc2c(F)c(-c3ccc(F)c4sc(N)c(C#N)c34)c(C(F)(F)F)cc12)[C@H]1CCN(C(=O)N2CC(F)(F)C2)C1 (atropisomer, axis not shown)	100 to 1000 nM
[2H][C@]1(N(CC)c2nc(OC[C@@]34CCCN3C[C@H](F)C4)nc3c(F)c(-c4ccc(F)c5sc(N)c(C#N)c45)c(C(F)(F)F)cc23)CCN(C(=O)C(C)C)C1 (atropisomer, axis not shown)	100 to 1000 nM
CCN(c1nc(OCC23CCCN2CC(F)C3)nc2c(F)c(-c3ccc(F)c4sc(N)c(C#N)c34)c(C(F)(F)F)cc12)C1CCN(C(=O)c2ncns2)C1 (stereo not drawn)	100 to 1000 nM
CN(Cc1ccccc1)c1nc(OC[C@@]23CCCN2C[C@H](F)C3)nc2c(F)c(-c3ccc(F)c4sc(N)c(C#N)c34)c(C(F)(F)F)cc12 (atropisomer, axis not shown)	> 10000 nM
CCN(c1nc(OC[C@@]23CCCN2C[C@H](F)C3)nc2c(F)c(-c3ccc(F)c4sc(N)c(C#N)c34)c(C(F)(F)F)cc12)[C@H]1C[C@H]2C[C@H](C)C(=O)N2C1 (atropisomer, axis not shown)	≤ 100 nM

Lookup: # get_value(readout='IC50', item= CCN(c1nc(OC[C@@]23CCCN2C[C@H](F)C3)nc2c(F)c(-c3ccc(F)c4sc(N)c(C#N)c34)c(C(F)(F)F)cc12)[C@H]1C[C@@H](C)N(C(=O)OC2CC(OC)C2)C1 (stereo partly drawn) )
Found: 100 to 1000 nM

Lookup: # get_value(readout='IC50', item= N#Cc1c(N)sc2c(F)ccc(-c3c(C(F)(F)F)cc4c(N5CCCC[C@@H](O)C5)nc(OC[C@@]56CCCN5C[C@H](F)C6)nc4c3F)c12 )
Found: 100 to 1000 nM

Lookup: # get_value(readout='IC50', item= CCN(c1nc(OC[C@@]23CCCN2C[C@H](F)C3)nc2c(F)c(-c3ccc(F)c4sc(N)c(C#N)c34)c(C(F)(F)F)cc12)[C@H]1CC(=O)N(C2CC2)C1 (atropisomer, axis not shown) )
Found: ≤ 100 nM

Lookup: # get_value(readout='IC50', item= CCN(c1nc(OC[C@@]23CCCN2C[C@H](F)C3)nc2c(F)c(-c3ccc(F)c4sc(N)c(C#N)c34)c(C(F)(F)F)cc12)[C@H]1CCN(C(=O)N2CC(OC)C2)C1 (atropisomer, axis not shown) )
Found: ≤ 100 nM

====

molecular target: Avi-KRAS G12D (1-169) GppNHp/RAF1 RBD-3xFLAG (52-151) (Homo sapiens, UniProt P01116, G12D); construct: Avi-KRAS G12D (1-169); assay: Raf1-KRAS G12D-GppNHP disruption HTRF assay (Biological Example 1); type: binding; conditions: KRAS G12D-GppNHp/RAF1 RBD HTRF
Sequence (P01116 1-169 isoform P01116-2 G12D): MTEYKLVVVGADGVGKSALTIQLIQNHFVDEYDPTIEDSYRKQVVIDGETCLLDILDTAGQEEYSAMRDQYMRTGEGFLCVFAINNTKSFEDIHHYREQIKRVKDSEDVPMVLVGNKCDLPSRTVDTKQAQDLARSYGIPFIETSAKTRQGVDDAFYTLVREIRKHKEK
pIC50: −log10 of the molar value.
endpointName: pIC50

Before answering, review these 10 worked examples.
molecule	measurement
CCOC(=O)N1CC[C@H](N(CC)c2nc(OC[C@@]34CCCN3C[C@H](F)C4)nc3c(F)c(-c4ccc(F)c5sc(N)c(C#N)c45)c(C(F)(F)F)cc23)C1	> 7.00
CC(=O)N1C[C@@H](C)[C@H](N(C)c2nc(OC[C@@]34CCCN3C[C@H](F)C4)nc3c(F)c(-c4ccc(F)c5sc(N)c(C#N)c45)c(C(F)(F)F)cc23)C1	6.00 to 7.00
CN1CCN(c2nc(OC[C@@]34CCCN3C[C@H](F)C4)nc3c(F)c(-c4ccc(F)c5sc(N)c(C#N)c45)c(C(F)(F)F)cc23)CCS1(=O)=O	< 5.00
C[C@@H]1Cn2nc(C(=O)N(C)C)cc2CN1c1nc(OC[C@@]23CCCN2C[C@H](F)C3)nc2c(F)c(-c3ccc(F)c4sc(N)c(C#N)c34)c(C(F)(F)F)cc12	5.00 to 6.00
CC(=O)N1CC[C@](C)(N(C)c2nc(OC[C@@]34CCCN3C[C@H](F)C4)nc3c(F)c(-c4ccc(F)c5sc(N)c(C#N)c45)c(C(F)(F)F)cc23)C1	5.00 to 6.00
C[C@@H]1[C@H](N(C)c2nc(OC[C@@]34CCCN3C[C@H](F)C4)nc3c(F)c(-c4ccc(F)c5sc(N)c(C#N)c45)c(Cl)cc23)CCN1C(=O)C(C)(C)F	5.00 to 6.00
CCN(c1nc(OC[C@@]23CCCN2C[C@H](F)C3)nc2c(F)c(-c3ccc(F)c4sc(N)c(C#N)c34)c(Cl)cc12)[C@@H]1CCN(C(C)=O)[C@@H]1C	6.00 to 7.00
N#Cc1c(N)sc2c(F)ccc(-c3c(C(F)(F)F)cc4c(N5CCO[C@H]6C[C@H]65)nc(OC[C@@]56CCCN5C[C@H](F)C6)nc4c3F)c12	6.00 to 7.00
CC[C@@H]1[C@H](N(C)c2nc(OC[C@@]34CCCN3C[C@H](F)C4)nc3c(F)c(-c4ccc(F)c5sc(N)c(C#N)c45)c(C(F)(F)F)cc23)CCN1C(=O)C1CC1	5.00 to 6.00
Cc1c(C(=O)N(C)C)nn2c1CN(c1nc(OC[C@@]34CCCN3C[C@H](F)C4)nc3c(F)c(-c4ccc(F)c5sc(N)c(C#N)c45)c(C(F)(F)F)cc13)CC2	> 7.00

Lookup: # get_value(readout='pIC50', item= N#Cc1c(N)sc2c(F)ccc(-c3c(C(F)(F)F)cc4c(N5CCC[C@@H](CO)C5)nc(OC[C@@]56CCCN5C[C@H](F)C6)nc4c3F)c12 )
Found: 6.00 to 7.00

Lookup: # get_value(readout='pIC50', item= CCN(c1nc(OC[C@@]23CCCN2C[C@H](F)C3)nc2c(F)c(-c3ccc(F)c4sc(N)c(C#N)c34)c(C(F)(F)F)cc12)[C@H]1CCN(C(=O)CCC#N)C1 (atropisomer, axis not shown) )
Found: > 7.00

Lookup: # get_value(readout='pIC50', item= CC(=O)N1C[C@H]2OCCN(c3nc(OC[C@@]45CCCN4C[C@H](F)C5)nc4c(F)c(-c5ccc(F)c6sc(N)c(C#N)c56)c(C(F)(F)F)cc34)[C@H]2C1 )
Found: 5.00 to 6.00

Lookup: # get_value(readout='pIC50', item= CN(C)C(=O)c1cc2n(n1)CCN(c1nc(OC[C@@]34CCCN3C[C@H](F)C4)nc3c(F)c(-c4ccc(F)c5sc(N)c(C#N)c45)c(C(F)(F)F)cc13)C2 )
Found: 6.00 to 7.00

Lookup: # get_value(readout='pIC50', item= CCN(c1nc(OC[C@@]23CCCN2C[C@H](F)C3)nc2c(F)c(-c3ccc(F)c4sc(N)c(C#N)c34)c(C(F)(F)F)cc12)[C@H]1CCN(C(=O)C(F)F)C1 (atropisomer, axis not shown) )
Found: > 7.00

Lookup: # get_value(readout='pIC50', item= CCC(=O)N1C[C@@H](N(CC)c2nc(OC[C@@]34CCCN3C[C@H](F)C4)nc3c(F)c(-c4ccc(F)c5sc(N)c(C#N)c45)c(C(F)(F)F)cc23)C[C@@H]1C )
Found: > 7.00

Lookup: # get_value(readout='pIC50', item= [2H]C1([2H])CN2C[C@H](F)C[C@]2(COc2nc(N(CC)[C@H]3CCN(C(=O)C(C)C)C3)c3cc(C(F)(F)F)c(-c4ccc(F)c5sc(N)c(C#N)c45)c(F)c3n2)C1 )
Found: > 7.00

Lookup: # get_value(readout='pIC50', item= CCN(c1nc(OC[C@@]23CCCN2C[C@H](F)C3)nc2c(F)c(-c3ccc(F)c4sc(N)c(C#N)c34)c(C(F)(F)F)cc12)[C@H]1CCS(=O)(=O)C1 [Compound 350] )
Found: 6.00 to 7.00

Lookup: # get_value(readout='pIC50', item= CC(=O)N1CCC2[C@H]1CCN2c1nc(OC[C@@]23CCCN2C[C@H](F)C3)nc2c(F)c(-c3ccc(F)c4sc(N)c(C#N)c34)c(C(F)(F)F)cc12 (some centres unmarked) )
Found: 5.00 to 6.00

Lookup: # get_value(readout='pIC50', item= Cn1ncc2c1CN(c1nc(OC[C@@]34CCCN3C[C@H](F)C4)nc3c(F)c(-c4ccc(F)c5sc(N)c(C#N)c45)c(C(F)(F)F)cc13)CC2 )
Found: 5.00 to 6.00
